- PROTOCOL_DESCRIPTION: Pharmacokinetics of anti-FRα antibodies in wild-type SCID mice
- Assay type: in vivo, mouse
- CONDITION_SUMMARY: 5 mg/kg iv bolus, total antibody
# reported Vss; entries follow
EXPERIMENTAL_READOUT: Vss (L/kg)

MOLECULE: AB1370095: anti-FRα fully human IgG1 antibody; VH SEQ ID NO: 45, VL SEQ ID NO: 46 (antibody, V domains shown) VH: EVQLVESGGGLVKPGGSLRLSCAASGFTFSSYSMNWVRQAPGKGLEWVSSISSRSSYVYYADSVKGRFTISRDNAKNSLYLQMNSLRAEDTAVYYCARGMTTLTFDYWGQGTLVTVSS VL: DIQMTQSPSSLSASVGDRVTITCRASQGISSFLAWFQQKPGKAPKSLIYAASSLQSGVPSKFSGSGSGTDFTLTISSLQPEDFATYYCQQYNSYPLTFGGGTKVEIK
MEASURED_RESULT: 0.071
--
MOLECULE: AB1370083: anti-FRα fully human IgG1 antibody; VH SEQ ID NO: 43, VL SEQ ID NO: 44 (antibody, V domains shown) VH: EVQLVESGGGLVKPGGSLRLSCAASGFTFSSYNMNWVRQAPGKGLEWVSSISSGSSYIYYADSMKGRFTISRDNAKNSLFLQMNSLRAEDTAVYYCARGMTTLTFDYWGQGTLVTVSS VL: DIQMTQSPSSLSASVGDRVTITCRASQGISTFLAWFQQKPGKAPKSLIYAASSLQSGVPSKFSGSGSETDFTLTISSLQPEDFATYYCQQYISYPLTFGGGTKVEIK
MEASURED_RESULT: 0.132
--
MOLECULE: AB1370035: anti-FRα fully human IgG1 antibody; VH SEQ ID NO: 41, VL SEQ ID NO: 42 (antibody, V domains shown) VH: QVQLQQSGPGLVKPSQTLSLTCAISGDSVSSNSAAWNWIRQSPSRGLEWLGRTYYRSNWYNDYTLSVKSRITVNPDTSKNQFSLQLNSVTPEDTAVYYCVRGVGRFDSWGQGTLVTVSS VL: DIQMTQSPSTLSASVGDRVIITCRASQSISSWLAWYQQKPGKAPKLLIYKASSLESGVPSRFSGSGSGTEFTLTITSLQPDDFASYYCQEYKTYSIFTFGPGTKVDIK
MEASURED_RESULT: 0.16
--
MOLECULE: AB1370026: anti-FRα fully human IgG1 antibody; VH SEQ ID NO: 39, VL SEQ ID NO: 40 (antibody, V domains shown) VH: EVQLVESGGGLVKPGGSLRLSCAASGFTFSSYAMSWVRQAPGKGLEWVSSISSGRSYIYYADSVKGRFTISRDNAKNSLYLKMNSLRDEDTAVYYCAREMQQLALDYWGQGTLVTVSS VL: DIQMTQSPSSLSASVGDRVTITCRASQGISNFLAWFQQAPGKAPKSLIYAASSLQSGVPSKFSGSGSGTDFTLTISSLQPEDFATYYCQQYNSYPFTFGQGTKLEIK
MEASURED_RESULT: 0.124

Origin of values: patent US20230295293A1
